# Test system: SKBR3-P
# protocol_details: area under growth-rate inhibition curve (AUC GRI) (dimensionless (GR-based AUC)); higher = less growth inhibition
# test_settings: exposure time: 72 h; concentrations: 0.1, 1, 10 uM
reported_metric: area under growth-rate inhibition curve
One number for each entry.

Nc1nc2c(cnn2CCc2ccccc2)c2nc(-c3ccco3)nn12 : 0.666
Cc1ccccc1C(=O)Nc1ccc(C(=O)N2CCCC(O)c3cc(Cl)ccc32)c(C)c1 (centres undefined) [Tolvaptan] : 1.02
O=c1[nH]c2ccccc2n1C1CCN(CCCC(c2ccc(F)cc2)c2ccc(F)cc2)CC1 [Pimozide] : 0.972

Hey, quick one: what's area under growth-rate inhibition curve for each of these?
1. C[C@H]1CN(C[C@H](Cc2ccccc2)C(=O)NCC(=O)O)CC[C@@]1(C)c1cccc(O)c1 [Alvimopan]
2. Cc1cc(C(C)(C)C)c(O)c(C)c1CC1=NCCN1.[Cl-].[H+] [Oxymetazoline hydrochloride]
3. COc1cc(C(C)=O)ccc1OCCCN1CCC(c2noc3cc(F)ccc23)CC1 [Iloperidone]
4. CCCCC1=NC2(CCCC2)C(=O)N1Cc1ccc(-c2ccccc2-c2nn[nH]n2)cc1 [Irbesartan]

**A:**
[1.02, 1.02, 0.991, 1.03]

For every item below, please supply its area under growth-rate inhibition curve.
1. O=C(NCC1CCOCC1)c1cnc(Nc2ccc(Cl)cc2Cl)nc1C(F)(F)F
2. CNCC(O)c1ccc(O)c(O)c1.[Cl-].[H+] (centres undefined) [Epinephrine HCl]

**A:**
1.02
1.02
